# TARGET_SYSTEM: T1, human IL-17A (human, UniProt Q16552 24-155)
# T1 construct: Purified recombinant; biotinylated in the ELISA; also called HuIL-17A; Hu IL-17A
# T1 sequence (Q16552 24-155 limits assumed): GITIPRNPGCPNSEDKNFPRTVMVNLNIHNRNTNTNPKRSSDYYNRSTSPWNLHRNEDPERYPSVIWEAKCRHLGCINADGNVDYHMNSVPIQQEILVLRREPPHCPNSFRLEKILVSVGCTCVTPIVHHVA
# EXPERIMENT_DESCRIPTION: SPR Biacore, captured binder
MEASURED_METRIC: Kd (nM)

>>> endpoint_value("IL17-G9-4 (antibody, V domains shown, converted into IgG) VH: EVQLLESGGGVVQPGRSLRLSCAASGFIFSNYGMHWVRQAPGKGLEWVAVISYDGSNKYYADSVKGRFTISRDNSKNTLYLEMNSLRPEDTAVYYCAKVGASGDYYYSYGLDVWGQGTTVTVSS VL: QSVLTQPPSASGTPGQTVSISCSGRQSNIGRHYVDWYQQVPGAAPKLLMYYDSIRPSGVPDRFSGSQSGTSASLAISGLQSEDEADYYCATWDDSLGGYVFGSGTKVTVLG")
0.00469
>>> endpoint_value("IL17-TN-L7-G9 (antibody, V domains shown, Fully human antibody) VH: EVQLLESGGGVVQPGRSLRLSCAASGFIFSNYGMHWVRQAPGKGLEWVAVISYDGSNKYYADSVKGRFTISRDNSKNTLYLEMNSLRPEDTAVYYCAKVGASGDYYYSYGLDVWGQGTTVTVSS VL: QSGLTQPPSASGTPGQTVSISCSGSNSNIGSHSVNWYQQVPGAAPKLLMYGIGQRPSGVPDRFSVSQSGTSASLAISGLQSEDEADYYCATWDDSLGGYVFGSGTKVTVLG")
0.28
>>> endpoint_value("IL17-G9-1 (antibody, V domains shown) VH: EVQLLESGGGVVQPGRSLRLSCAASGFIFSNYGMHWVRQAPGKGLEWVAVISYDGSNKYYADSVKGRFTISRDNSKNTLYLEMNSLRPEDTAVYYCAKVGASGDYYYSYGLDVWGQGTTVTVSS VL: QSVLTQPPSASGTPGQTVSISCSGSHSNIGRHPVDWYQQVPGAAPKLLMYYGGYRPSGVPDRFSGSQSGTSASLAISGLQSEDEADYYCATWDDRLVGYVFGSGTKVTVLG")
0.0257
>>> endpoint_value("IL17-B6-5 (antibody, V domains shown, also called pJP243 B6.1 #5VH / pJP244 B6.1 #5VK) VH: EVQLVQSGAEVKKPGESVKISCKASGGSFRSYGISWVRQAPGQGLEWMGGITHFFGITDYAQKFQGRVTITADESTTTAYMELSGLTSDDTAVYYCAREPNDFWNGYYDTHDFDSWGQGTTVTVSS VL: EIVLTQSPDFQSVTPKEKVTITCRASQNIGSELHWYQQKPDQSPKLLIKYASHSISGVPSRFSGSGSGTDFTLTINGLEAEDAATYYCHQSDTLPHTFGQGTKVDIK")
0.00318
